# Tested on: NCI-H23 lung
# ASSAY: NCI-60 one-dose screen, 48 h (100 = growth as untreated, 0 = no growth, -100 = all killed)
# MEASUREMENT_SETUP: 10 µM unless noted
# Method: Growth inhibition of the NCI-H23 human Non-Small Cell Lung tumor cell line is measured as a screen for anti-cancer activity. Cells are grown in 96 well plates and exposed to the test compound for 48 hours. Compounds are tested at a single concentration, which is 10^-5 M for most compounds. The reported endpoint is percent growth (GI% or GIPRCNT), where numbers from 0 - 100% represent growth inhibition, and numbers from -100% - 0 represent cell death. […]
The panel holds about 83,000 compounds, 20% with a hit somewhere; the sample as a whole holds those more often.
Threshold 90%: growth strictly smaller gives true (1), otherwise false (0).

The examples below pair each entry with its known result.
compound="O=C1OCC2=C1C(c1ccccc1)c1cc3c(cc1N2)OCO3 (centres undefined)" system_under_test="NCI-H23 lung" assigned_label="true (1)"
compound="CN1CCCCC1C(C)(O)c1ccccc1 (centres undefined)" system_under_test="NCI-H23 lung" assigned_label="false (0)"
compound=CCOC(=O)[C@@H](C)C[C@H](Cc1ccccc1)NC(=O)c1csc([C@@H](C[C@H](C(C)C)N(C)C(=O)[C@@H](NC(=O)[C@H]2C[C@H](O)CCN2C)C(C)C)OC(C)=O)n1 system_under_test="NCI-H23 lung" assigned_label="true (1)"

Exam item: Lab log: compare recorded growth with 90%; is it strictly lower for CC[C@H](C)[C@H](NC(=O)C12CC(NC(C)=O)(C1)C2)C(=O)N(C)[C@H](C[C@@H](OC(C)=O)c1nc(C(=O)N[C@@H](Cc2ccccc2)C[C@H](C)C(=O)OC)cs1)C(C)C ?
Marked response: true (1)

Exam item: Consider next the compound Cc1ccc(C(=O)NCCCOc2ccc(N3C(N)=NC(N)=NC3(C)C)cc2Cl)cc1S(=O)(=O)F in the same way.
Marked response: true (1)

Just for reference, PubChem BioAssay (NCI) is where these values come from.
